Field: EC50. Provide a value for each of the compounds that follow.
Biological target: human μ-opioid receptor (OPRM1) (Homo sapiens)
Sequence (P35372 whole entry): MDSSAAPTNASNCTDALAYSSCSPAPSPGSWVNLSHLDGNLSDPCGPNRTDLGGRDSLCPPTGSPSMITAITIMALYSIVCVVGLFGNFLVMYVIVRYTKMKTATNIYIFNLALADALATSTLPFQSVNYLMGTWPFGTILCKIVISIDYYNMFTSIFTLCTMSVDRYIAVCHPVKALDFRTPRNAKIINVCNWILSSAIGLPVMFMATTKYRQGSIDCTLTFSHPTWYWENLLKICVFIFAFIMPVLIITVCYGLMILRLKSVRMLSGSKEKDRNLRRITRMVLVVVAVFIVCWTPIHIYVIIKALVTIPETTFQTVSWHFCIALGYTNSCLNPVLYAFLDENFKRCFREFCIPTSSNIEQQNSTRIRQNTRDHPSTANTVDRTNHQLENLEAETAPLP
Assay: cell-based
Conditions: MOR cAMP Agonist Potency ± SEM
Quick reminder: number only, in nM, skip the unit.

INPUT: Any idea what EC50 was measured for O=C1CCC2C3Cc4ccc(O)c5c4[C@@]2(CCN3CCc2ccc(C(F)(F)F)cc2)[C@H]1O5 (stereo partly shown) ?
OUTPUT: 0.21

INPUT: Any idea what EC50 was measured for O=C1CCC2C3Cc4ccc(O)c5c4C2(CCN3CCc2ccccc2)C1O5 (stereo not shown) [Compound S11, N-Phenethylnorhydromorphone] ?
OUTPUT: 0.04

INPUT: Any idea what EC50 was measured for O=C1CCC2C3Cc4ccc(O)c5c4[C@@]2(CCN3CCc2ccc([N+](=O)[O-])cc2)[C@H]1O5 (stereo partly shown) ?
OUTPUT: 0.05

INPUT: Any idea what EC50 was measured for N#CCN1CC[C@]23c4c5ccc(O)c4O[C@H]2C(=O)CCC3C1C5 (stereo partly shown) ?
OUTPUT: 4.16

----------
Field: ED50. Provide a value for each of the compounds that follow.
Assay: Squirrel monkey ventilation (whole-body plethysmograph, air or 5% CO2)
Type: in vivo, Saimiri sciureus
Conditions: male, monkey, in vivo, other: injection; squirrel monkeys; dose required to decrease minute volume in 5% CO2 to 50% of baseline; read-out: ED50 Respiratory Depression
Quick reminder: number only, in mg/kg, skip the unit.

INPUT: Any idea what ED50 was measured for CN1CC[C@]23c4c5ccc(O)c4O[C@H]2[C@@H](O)C=C[C@H]3[C@H]1C5 [Morphine, reference compound] ?
OUTPUT: 1.06

INPUT: Any idea what ED50 was measured for O=C1CCC2C3Cc4ccc(O)c5c4[C@@]2(CCN3CCc2ccc(Cl)cc2)[C@H]1O5 (some centres unmarked) ?
OUTPUT: 0.057

----------
Target: κ-opioid receptor (KOR) (Rattus norvegicus)
Construct: Frozen whole rat brains excluding cerebellum were thawed on ice
Sequence (P34975 whole entry): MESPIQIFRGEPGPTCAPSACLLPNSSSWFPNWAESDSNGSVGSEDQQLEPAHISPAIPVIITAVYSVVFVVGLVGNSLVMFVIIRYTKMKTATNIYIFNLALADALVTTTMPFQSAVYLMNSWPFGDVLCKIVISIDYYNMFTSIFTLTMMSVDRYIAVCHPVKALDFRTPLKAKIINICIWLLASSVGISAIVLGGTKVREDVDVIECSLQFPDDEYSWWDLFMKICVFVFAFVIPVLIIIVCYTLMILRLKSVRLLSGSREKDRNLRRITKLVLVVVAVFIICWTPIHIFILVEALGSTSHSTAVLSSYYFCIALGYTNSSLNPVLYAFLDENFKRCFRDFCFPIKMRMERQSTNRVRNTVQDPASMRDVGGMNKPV
Assay: Opioid receptor binding, κ sites ([3H]U69,593), rat brain homogenate
Conditions: KOR Binding (Ki), whole rat brain excluding cerebellum, [3H]U69,593; Ki ± SEM
Field: log10 of Ki. Provide a value for each of the molecules that follow.
// stored as log10 of Ki expressed in nM

INPUT: Any idea what log10 of Ki was measured for O=C1CCC2C3Cc4ccc(O)c5c4[C@@]2(CCN3CCc2ccc([N+](=O)[O-])cc2)[C@H]1O5 (stereo partly drawn) [Compound 2a] ?
OUTPUT: 1.75

INPUT: Any idea what log10 of Ki was measured for Cc1ccc(CCN2CC[C@]34c5c6ccc(O)c5O[C@H]3C(=O)CCC4C2C6)cc1 (stereo partly drawn) [Compound 2c] ?
OUTPUT: 1.64

INPUT: Any idea what log10 of Ki was measured for N#CCN1CC[C@]23c4c5ccc(O)c4O[C@H]2C(=O)CCC3C1C5 (stereo partly drawn) [Compound 1a] ?
OUTPUT: 1.96

INPUT: Any idea what log10 of Ki was measured for O=C1CCC2C3Cc4ccc(O)c5c4[C@@]2(CCN3CCc2ccccc2F)[C@H]1O5 (stereo partly drawn) [Compound 2g] ?
OUTPUT: 1.37

INPUT: Any idea what log10 of Ki was measured for COc1ccc(CCN2CC[C@]34c5c6ccc(O)c5O[C@H]3C(=O)CCC4C2C6)cc1 (stereo partly drawn) [Compound 2d] ?
OUTPUT: 1.42

INPUT: Any idea what log10 of Ki was measured for O=C1CCC2C3Cc4ccc(O)c5c4[C@@]2(CCN3CCc2cccc(F)c2)[C@H]1O5 (stereo partly drawn) [Compound 2f] ?
OUTPUT: 1.48

INPUT: Any idea what log10 of Ki was measured for N#CCCCN1CCC23c4c5ccc(O)c4OC2C(=O)CCC3C1C5 (stereo not drawn) [Compound 1b] ?
OUTPUT: 0.43

INPUT: Any idea what log10 of Ki was measured for O=C1CCC2C3Cc4ccc(O)c5c4C2(CCN3CCc2cccc([N+](=O)[O-])c2)C1O5 (stereo not drawn) [Compound 2b] ?
OUTPUT: 1.82

INPUT: Any idea what log10 of Ki was measured for O=C1CCC2C3Cc4ccc(O)c5c4[C@@]2(CCN3CCc2ccc(F)cc2)[C@H]1O5 (stereo partly drawn) [Compound 2e] ?
OUTPUT: 1.65

----------
Molecular target: human μ-opioid receptor β-arrestin-2 (Homo sapiens, UniProt P35372)
Construct: enzyme fragment for EFC (β-galactosidase ProLink fragment, by own knowledge of the PathHunter system); host or cells: PathHunter CHO cells
Sequence (P35372 whole entry, the tested form may be a part): as the sequence (P35372 whole entry) above
Experiment: cell-based
Field: Bias Factor. Provide a value for each of the compounds that follow.
Form rule: numeric answer, no unit written next to it.

INPUT: Value wanted: Bias Factor (human μ-opioid receptor β-arrestin-2 (Homo sapiens, UniProt P35372)) of entry O=C1CCC2C3Cc4ccc(O)c5c4[C@@]2(CCN3CCc2ccc(Cl)cc2)[C@H]1O5 (stereo partly drawn) [Compound 2i]
OUTPUT: 0.82

INPUT: Value wanted: Bias Factor (human μ-opioid receptor β-arrestin-2 (Homo sapiens, UniProt P35372)) of entry O=C1CCC2C3Cc4ccc(O)c5c4C2(CCN3CCc2cccc([N+](=O)[O-])c2)C1O5 (stereo not drawn) [Compound 2b]
OUTPUT: 3.38

INPUT: Value wanted: Bias Factor (human μ-opioid receptor β-arrestin-2 (Homo sapiens, UniProt P35372)) of entry Cc1ccc(CCN2CC[C@]34c5c6ccc(O)c5O[C@H]3C(=O)CCC4C2C6)cc1 (stereo partly drawn) [Compound 2c]
OUTPUT: 1.12

INPUT: Value wanted: Bias Factor (human μ-opioid receptor β-arrestin-2 (Homo sapiens, UniProt P35372)) of entry O=C1CCC2C3Cc4ccc(O)c5c4[C@@]2(CCN3CCc2ccc(C(F)(F)F)cc2)[C@H]1O5 (stereo partly drawn) [Compound 2h]
OUTPUT: 0.56

INPUT: Value wanted: Bias Factor (human μ-opioid receptor β-arrestin-2 (Homo sapiens, UniProt P35372)) of entry O=C1CCC2C3Cc4ccc(O)c5c4[C@@]2(CCN3CC=Cc2ccccc2)[C@H]1O5 (stereo partly drawn) [Compound 1c]
OUTPUT: 1.35

INPUT: Value wanted: Bias Factor (human μ-opioid receptor β-arrestin-2 (Homo sapiens, UniProt P35372)) of entry O=C1CCC2C3Cc4ccc(O)c5c4[C@@]2(CCN3CCc2c(Cl)cccc2Cl)[C@H]1O5 (stereo partly drawn) [Compound 2k]
OUTPUT: 1.04

INPUT: Value wanted: Bias Factor (human μ-opioid receptor β-arrestin-2 (Homo sapiens, UniProt P35372)) of entry O=C1CCC2C3Cc4ccc(O)c5c4[C@@]2(CCN3CC2Cc3ccccc3C2)[C@H]1O5 (stereo partly drawn) [Compound 1d]
OUTPUT: 2.53

INPUT: Value wanted: Bias Factor (human μ-opioid receptor β-arrestin-2 (Homo sapiens, UniProt P35372)) of entry O=C1CCC2C3Cc4ccc(O)c5c4[C@@]2(CCN3CCc2ccccc2F)[C@H]1O5 (stereo partly drawn) [Compound 2g]
OUTPUT: 1.37

INPUT: Value wanted: Bias Factor (human μ-opioid receptor β-arrestin-2 (Homo sapiens, UniProt P35372)) of entry COc1ccc(CCN2CC[C@]34c5c6ccc(O)c5O[C@H]3C(=O)CCC4C2C6)cc1 (stereo partly drawn) [Compound 2d]
OUTPUT: 2.69

INPUT: Value wanted: Bias Factor (human μ-opioid receptor β-arrestin-2 (Homo sapiens, UniProt P35372)) of entry O=C(O)C(=O)O.O=C1CCC2[C@H]3Cc4ccc(O)c5c4[C@@]2(CCN3CCc2ccc(Br)cc2)[C@H]1O5 (stereo partly drawn) [Compound 2j]
OUTPUT: 0.43

INPUT: Value wanted: Bias Factor (human μ-opioid receptor β-arrestin-2 (Homo sapiens, UniProt P35372)) of entry O=C1CCC2C3Cc4ccc(O)c5c4C2(CCN3CCc2ccccc2)C1O5 (stereo not drawn) [Compound S11, N-Phenethylnorhydromorphone]
OUTPUT: 0.47

INPUT: Value wanted: Bias Factor (human μ-opioid receptor β-arrestin-2 (Homo sapiens, UniProt P35372)) of entry O=C1CCC2C3Cc4ccc(O)c5c4[C@@]2(CCN3CCc2ccc(F)cc2)[C@H]1O5 (stereo partly drawn) [Compound 2e]
OUTPUT: 1.39

INPUT: Value wanted: Bias Factor (human μ-opioid receptor β-arrestin-2 (Homo sapiens, UniProt P35372)) of entry N#CCN1CC[C@]23c4c5ccc(O)c4O[C@H]2C(=O)CCC3C1C5 (stereo partly drawn) [Compound 1a]
OUTPUT: 2.18

INPUT: Value wanted: Bias Factor (human μ-opioid receptor β-arrestin-2 (Homo sapiens, UniProt P35372)) of entry O=C1CCC2C3Cc4ccc(O)c5c4[C@@]2(CCN3CCc2ccc([N+](=O)[O-])cc2)[C@H]1O5 (stereo partly drawn) [Compound 2a]
OUTPUT: 4.51

INPUT: Value wanted: Bias Factor (human μ-opioid receptor β-arrestin-2 (Homo sapiens, UniProt P35372)) of entry O=C1CCC2C3Cc4ccc(O)c5c4[C@@]2(CCN3CCc2cccc(F)c2)[C@H]1O5 (stereo partly drawn) [Compound 2f]
OUTPUT: 1.94

Cited source: paper PMC7321161
